tgt: Corticotropin-releasing factor receptor 1 (Homo sapiens, UniProt P34998)
Sequence (P34998 whole entry): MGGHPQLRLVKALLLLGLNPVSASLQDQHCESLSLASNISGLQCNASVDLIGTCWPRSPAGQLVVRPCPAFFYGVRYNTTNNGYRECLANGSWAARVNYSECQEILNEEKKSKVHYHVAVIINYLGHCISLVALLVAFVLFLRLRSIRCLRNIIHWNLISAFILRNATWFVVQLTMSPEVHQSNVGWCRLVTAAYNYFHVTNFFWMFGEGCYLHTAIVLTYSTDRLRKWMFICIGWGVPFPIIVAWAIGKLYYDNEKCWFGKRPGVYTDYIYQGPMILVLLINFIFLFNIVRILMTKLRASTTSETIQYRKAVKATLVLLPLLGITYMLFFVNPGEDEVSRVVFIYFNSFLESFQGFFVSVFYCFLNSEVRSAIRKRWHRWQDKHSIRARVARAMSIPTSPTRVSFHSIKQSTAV
assay-details: Antagonistic activity for Corticotropin releasing factor receptor 1
test-readout: Ki (nM)
Give a bare numeral; the unit nM is implied.

The examples below pair each entry with its known result.
> print(dat)
                      smiles.representation                                       tgt  units.text  observed
1  Cc1cc(C)c(-n2nnc3c(-c4ccccc4C(F)(F)F)nc(C)nc32)c(C)c1  Corticotropin-releasing factor receptor 1 (Homo sapiens, UniProt P34998)          nM       168
2  CCCCN(CC)c1nc(C)nc2c1nnn2-c1c(Br)cc(OC)cc1OC  Corticotropin-releasing factor receptor 1 (Homo sapiens, UniProt P34998)          nM       3.5
3  COc1cc(Br)c(-n2c(=O)n(C)c3c(-c4ccccc4C(F)(F)F)nc(C)nc32)c(OC)c1  Corticotropin-releasing factor receptor 1 (Homo sapiens, UniProt P34998)          nM      95.5
4  COc1cc(Br)c(Nc2nc(C)nc(-c3ccccc3C(F)(F)F)c2N)c(OC)c1  Corticotropin-releasing factor receptor 1 (Homo sapiens, UniProt P34998)          nM      60.3

q: Which Ki reading was recorded for the compound `COc1cc(Br)c(-n2c(C)nc3c(-c4ccccc4C(F)(F)F)nc(C)nc32)c(OC)c1` ?
a: 32.3
